test: yeast display, Sf9 membrane polyspecificity reagent, FACS + sequencing; frameworks hold sequencing errors
Recorded Metric: polyreactivity (PSR sort gate)

1. QVQLVESGGGLVQAGGSLRLSCAASGSIFNGNAMGWYRQAPGKERELVAAISRNRGSTYYADSVKGRFTISRDNAKNTVYLQMNSLKPEDTAVYYCPTDLTVYYSYYWMYWGQGTQVTVSS
low polyreactivity
2. QVQLVESGGGLVQAGGSLRLSCAASGFIFSSNAMGGYRQAPGTERELVATIDRDGGITYADSVKGRFTISRDNAKTTVYIQMNSLKPEDTEVYYCAADPSSYGRFTYDYWGQGTQVTVSS
low polyreactivity
3. QVQLVESGGGLVQAGGSLRLSCAASGRITFSHNTMGGSRQAPGKERELVAAISSGGRTNYADSVKGRFTISRDNAKNTVYLQMNSLKPEDTAVYYCARESHYDFIYDGMDYWGQGTQVTVSS
low polyreactivity
4. QVQLVESGGGLVHAGGSLRLSCAASGSILKYYAMGWYRQAPGKERELVAAITSRGGSTYYADSVKGRFTISRDNAKNTVYLQMNSLKPEDTAVYYCNRVYLGYFRYDYWGQGTQVTVSS
high polyreactivity
5. QVQLVESGGGLVQAGGSLRLSCAASGLTFRYYAMGWYRQAPGKERELVAAISSRGASTYYADSVKGRFTISRDNAKNTVYLQMNSLKPEDTAVYYCAVRTYVYHWSFSSLPYDYWGEGTQVTVSS
high polyreactivity
6. QVQLVESGGGLVQAGGSLRLSCAASGNTFVYNDMGWYRQAPGKERELVADIRYSGSTYYADSVKGRFTISRDNAKNTVYLQMNSLKPEDTAVYYCAKAYYVLSWMGYWGQGTQVTVSS
low polyreactivity
7. QVQLVESGGGLVQAGGSLRLSCAASGRTLRYYAMGWYRQAPGKERELVATITGSGGSTYYADSVKGRFTISRDNAKNTVYLQMNSLKPEDTAVYYCNARKVRYPYRWYDYWGQGTQVTVSS
high polyreactivity
8. QVQLVESGGGLVQAGGSLRLSCASSGFIFPWNAMGWYRQAPGKERELVADISTGTSRTYADSVKGRFTISRDNAKNTVYFQMNSLKPEDTAVYYFNKAHNYKYDWGQGTQVTVSS
low polyreactivity
9. QVQLEESGGGLVQAGGSLPLSCAASGFIFGRYAMGWYRQAPGKEREFVASISWSGGSTYYADSVKGRFTISRDNAKNTVYLQMNSLKPEDTAVYYCAAYVRKDRSRGLYGYWGQGTQVTVSS
high polyreactivity
10. QVQLVESGGGLVQAGGSLRLSCAASGSTFHTYVMGWYRQAPGKERELVASISSGGSTYYADSVKGRFTISRDNAKNTVSLQMNSLKPEDTAVYYCAAGYPYYWHFDYWGQGSQVTVSS
low polyreactivity
11. QVQLVESGGGLVQAGGSLRLSCAASGYIFSGYARGWYRKAPGKERELVAAISSNGGSTYYADSVKGRFTISRDNANNTVYVQMNSLKPEDTAVYYCNRGLAARVGRGDYWGQGTQVTVSS
low polyreactivity
